The reported measurements were obtained from PubChem BioAssay AID1159580.

Experiment: chemical genetic growth profiling, strain panel (AID 1159580);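 also: tested at 20 µM; growth read once vehicle control cultures reached saturation at 30 °C; lower values mean less growth of the strain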
Details: S. cerevisiae deletion strains, growth OD, locus YCR088W, strain abp1
About 2,000 (36%) of roughly 5,500 compounds were called active. Not shown: some 18% with an inconclusive outcome. Rule as the data show it: active = normalized growth mostly below about 0.91 (no sharp cut-off); inconclusive = no clear call, values can overlap the other calls; inactive = mostly above about 0.92. This is one part of the list.
Can you answer with just one of these options? active, inactive

## Input Which outcome was assigned to "CC(=O)N[C@@H](CC(=O)O)C(=O)O" in this test?
## Output inactive

## Input Would you mind telling me which call this test gave "CNC(=O)CSP(=S)(OC)OC" ?
## Output inactive

## Input Assay outcome for "Cn1cnc([N+](=O)[O-])c1Sc1ncnc2nc[nH]c12" : what was it?
## Output inactive

## Input Could you kindly confirm the outcome this assay logged for "CC(C)=CCOc1c2occc2cc2ccc(=O)oc12" ?
## Output inactive

## Input For "CC1(C)C[C@@H]2C(=O)CC[C@H]3O[C@]3(C)CC[C@H]21" , what call appears in the results of this test?
## Output inactive

## Input Entry "Cn1c([N+](=O)[O-])cnc1COC(N)=O" : call = ?
## Output inactive

## Input Recorded test call requested for "COP(=S)(OC)SCn1nnc2ccccc2c1=O"
## Output inactive

## Input Returns: the outcome recorded for "O=C1c2ccc(O)c(O)c2C(=O)c2c(O)ccc(O)c21" in this assay.
## Output active

## Input Answer briefly: the call reported for C[C@]12CCC3c4ccc(O)cc4CCC3C1CC[C@@H]2OC(=O)CCC1CCCC1 (stereo partly specified) in this assay.
## Output inactive

## Input Query: recorded result category for "Nc1ncnc2nc[nH]c12" in this test
## Output inactive

## Input In this assay, the call recorded for CCCC(=O)Nc1ncnc2c1ncn2C1O[C@@H]2COP(=O)(O)O[C@H]2[C@H]1OC(=O)CCC (stereo partly specified) was what?
## Output inactive

## Input State the result this test recorded for C[N+]1(C)C2CC[C@H]1CC(OC(=O)C(O)c1ccccc1)C2 (stereo partly specified) .
## Output inactive

## Input Returns: the outcome recorded for "O=c1[nH]c2ccccc2n1C1CCN(CCCC(c2ccc(F)cc2)c2ccc(F)cc2)CC1" in this assay.
## Output inactive

## Input # fetch the recorded call for CCOC(=O)C1=C(C)NC(C)=C(C(=O)OC)C1c1cccc([N+](=O)[O-])c1 (stereo unspecified) here
## Output inactive

## Input Just curious, what result did "CCS(=O)(=O)CCn1c([N+](=O)[O-])cnc1C" get here?
## Output inactive

## Input Per the records of this test, what outcome belongs to CCOc1nc2cccc(C(=O)OC(C)OC(=O)OC3CCCCC3)c2n1Cc1ccc(-c2ccccc2-c2nn[nH]n2)cc1 (stereo unspecified) ?
## Output inactive

## Input Which result was noted for this molecule in the test: "COc1ccc2c(=O)c(CC(=O)O)coc2c1"
## Output inactive

## Input # lookup: test call for "O=C1c2ccccc2-c2cccc3cccc1c23"
## Output inactive

---

Assay: chemical genetic growth profiling, strain panel (AID 1159580);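 also: tested at 20 µM; growth read once vehicle control cultures reached saturation at 30 °C; lower values mean less growth of the strain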
Details: S. cerevisiae deletion strains, growth OD, locus YDR195W, strain ref2
The whole screen tested about 5,500 compounds, of which about 2,000 (36%) were called active. Roughly 18% stayed inconclusive and do not appear here. Rule as the data show it: active = normalized growth mostly below about 0.91 (no sharp cut-off); inconclusive = no clear call, values can overlap the other calls; inactive = mostly above about 0.92. Some of the results follow.
Select the correct class. Options are active, inactive and nothing else.

Solved cases below.
>>> print(df.to_string())
                                   compound  classification
0  Nc1ncnc2c1ncn2[C@@H]1O[C@H](CO)[C@@H](O)[C@@H]1O        inactive
1              CC(=O)N[C@@H](CC(=O)O)C(=O)O        inactive
2  OCCN1CCN(CCCN2c3ccccc3Sc3ccc(Cl)cc32)CC1        inactive
3  CCCCC(=O)N(Cc1ccc(-c2ccccc2-c2nn[nH]n2)cc1)[C@H](C(=O)O)C(C)C        inactive
4  C[C@]12CCC3c4ccc(O)cc4CCC3C1CC[C@@H]2OC(=O)CCC1CCCC1 (stereo partly drawn)        inactive
5                      CNC(=O)CSP(=S)(OC)OC        inactive
6          CC(C)=CCC1=C(O)c2ccccc2C(=O)C1=O        inactive
7  C[C@]12CCC3C(CC[C@H]4CC(=O)CC[C@]34C)C1CCC2=O (stereo partly drawn)          active
8                 Cc1ncc([N+](=O)[O-])n1CCO        inactive
9                 COc1cc2ccc(=O)oc2c2ccoc12          active

## Input What did this assay record as the result for COc1cc(OC)c2c(c1Cl)OC1(C2=O)C(O)=CC(=O)CC1C (stereo not drawn) ?
## Output inactive

## Input Per the assay record, what outcome was assigned to "COc1ccc2c(=O)c(CC(=O)O)coc2c1" ?
## Output inactive

## Input Each compound tested received a call. Report the one for "COc1c2occc2cc2ccc(=O)oc12" .
## Output active

## Input Outcome? "O=c1[nH]cnc2nc[nH]c12"
## Output inactive

## Input Short answer needed: outcome of this test for "CCS(=O)(=O)CCn1c([N+](=O)[O-])cnc1C" ?
## Output inactive

## Input Fill in: this test's call for "CC(C)=CCc1c(O)cc2occ(-c3ccc4c(c3)OCO4)c(=O)c2c1O" is ___
## Output inactive
